Cited source: BindingDB's records for doi:10.1021/acs.jmedchem.8b01200

TEST_SUMMARY: Agonist activity at PPARgamma in human MKN45 cells assessed as cell differentiation after 5 days by Hoechst 33342 staining-based assay
OUTCOME_MEASURE: EC50

Query: Consider the molecule `CCCCCS(=O)(=O)NC(=O)c1ccc2nc(C)n(Cc3ccc(Cl)cc3Cl)c2c1` and give its measured EC50.
Response: > 500 nM
